For each entry below, report its GI50 value.
- Test system: ACHN
- assayProtocol: Growth inhibition of human ACHN cells incubated for 48 hrs by sulforhodamine B assay
- Format: functional
Please append the unit to your numeric answer.

Required: GI50, one value per compound below.
1. O=CN1N=C(c2ccc(Cl)cc2)CC1c1cccc(Nc2ccnc3cc(Cl)ccc23)c1 (stereo not given)
2. COc1ccc(C(=O)/C=C/c2cccc(Nc3ccnc4cc(Cl)ccc34)c2)cc1
3. COc1ccc(C2=NN(C=O)C(c3cccc(Nc4ccnc5cc(Cl)ccc45)c3)C2)cc1 (stereo not given)

stdout:
["2.64 µM", "1.73 µM", "4.59 µM"]

For the 2 compounds below, give their GI50 values.
1. COc1cc(C(=O)/C=C/c2cccc(Nc3ccnc4cc(Cl)ccc34)c2)cc(OC)c1OC
2. COc1cccc2c1C(=O)c1c(O)c3c(c(O)c1C2=O)C[C@@](O)(C(=O)CO)C[C@@H]3O[C@H]1C[C@H](N)[C@H](O)[C@H](C)O1

stdout:
1: 1.24 µM; 2: 0.08 µM

----------
- System: HCC 2998
- assayProtocol: Growth inhibition of human HCC2998 cells at 10 uM incubated for 48 hrs by sulforhodamine B assay
- Assay type: functional, cell-based
Calls of active or inactive are those of the source. The calls are words filed in the database; no cut-off is given here.
Output constraint: value belongs to active, inactive

// below: answered compounds
compound	qualitativeLabel
COc1ccc(C2=NN(C=O)C(c3cccc(Nc4ccnc5cc(Cl)ccc45)c3)C2)cc1 (stereo not given)	active
Clc1ccc(C2=NN(c3ccccc3)C(c3cccc(Nc4ccnc5cc(Cl)ccc45)c3)C2)cc1 (stereo not given)	inactive
COc1ccc(C2=NN(c3ccccc3)C(c3cccc(Nc4ccnc5cc(Cl)ccc45)c3)C2)cc1 (stereo not given)	inactive

stdin: Can you look up the reported call for COc1ccc(C2=NN(c3ccc(Cl)cc3)C(c3cccc(Nc4ccnc5cc(Cl)ccc45)c3)C2)cc1 (stereo not given) for me?
stdout: inactive

stdin: Status in this test for O=CN1N=C(c2ccc(Cl)cc2)CC1c1cccc(Nc2ccnc3cc(Cl)ccc23)c1 (stereo not given) ?
stdout: active

stdin: Identify the outcome logged in this assay for the compound shown: `COc1cc(C(=O)/C=C/c2cccc(Nc3ccnc4cc(Cl)ccc34)c2)cc(OC)c1OC`
stdout: active

stdin: Name the outcome recorded for COc1cc(C2=NN(c3ccc(Cl)cc3)C(c3cccc(Nc4ccnc5cc(Cl)ccc45)c3)C2)cc(OC)c1OC (stereo not given) in the assay.
stdout: inactive

stdin: Please state the recorded outcome for this compound: Clc1ccc(C2=NN(c3cc(Cl)cc(Cl)c3)C(c3cccc(Nc4ccnc5cc(Cl)ccc45)c3)C2)cc1 (stereo not given)
stdout: inactive

stdin: Each compound tested received a call. Report the one for Clc1ccc(C2=NN(c3ccc(Cl)cc3)C(c3cccc(Nc4ccnc5cc(Cl)ccc45)c3)C2)cc1 (stereo not given) .
stdout: inactive

stdin: Identify the outcome logged in this assay for the compound shown: `COc1ccc(C(=O)/C=C/c2cccc(Nc3ccnc4cc(Cl)ccc34)c2)cc1`
stdout: active

----------
- Tested on: Malme-3M
- assayProtocol: Growth inhibition of human MALME-3M cells incubated for 48 hrs by sulforhodamine B assay
- Assay type: functional
- experimentalParameters: read-out: LC50 (the source's name)
readout: CC50 (µM)
One number for each entry, in µM.

molecule	CC50, µM
O=CN1N=C(c2ccc(Cl)cc2)CC1c1cccc(Nc2ccnc3cc(Cl)ccc23)c1 (centres undefined)	76.6

Considering `COc1cc(C(=O)/C=C/c2cccc(Nc3ccnc4cc(Cl)ccc34)c2)cc(OC)c1OC` , its CC50 with Malme-3M was recorded as 7.8

----------
- Test system: Candida albicans
- assayProtocol: Antifungal activity against Candida albicans ATCC 10231 incubated for 48 hrs under dark condition by broth microdilution method
- Type: functional
- experimentalParameters: ATCC 10231, 48 h
Would you mind telling me the reported MIC80 of each entry?

molecule	MIC80
O=C(/C=C/c1cccc(Nc2ccnc3cc(Cl)ccc23)c1)c1ccc(Br)cc1	≥ 250 µg/mL

Please state MIC80 for every molecule in the list that follows.
1. CC(=O)N1N=C(c2ccccc2)CC1c1cccc(Nc2ccnc3cc(Cl)ccc23)c1 (stereo not drawn)
2. Cc1ccc(C2=NN(c3cc(Cl)cc(Cl)c3)C(c3cccc(Nc4ccnc5cc(Cl)ccc45)c3)C2)cc1 (stereo not drawn)
3. O=CN1N=C(c2ccc(Cl)cc2)CC1c1cccc(Nc2ccnc3cc(Cl)ccc23)c1 (stereo not drawn)
4. COc1cc(C2=NN(C(C)=O)C(c3cccc(Nc4ccnc5cc(Cl)ccc45)c3)C2)cc(OC)c1OC (stereo not drawn)
5. O=Cc1cccc(Nc2ccnc3cc(Cl)ccc23)c1
6. Clc1ccc(N2N=C(c3ccc(Br)cc3)CC2c2cccc(Nc3ccnc4cc(Cl)ccc34)c2)cc1 (stereo not drawn)
7. COc1cc(C2=NN(c3cc(Cl)cc(Cl)c3)C(c3cccc(Nc4ccnc5cc(Cl)ccc45)c3)C2)cc(OC)c1OC (stereo not drawn)

stdout:
1: ≥ 250 µg/mL; 2: ≥ 250 µg/mL; 3: ≥ 250 µg/mL; 4: ≥ 250 µg/mL; 5: ≥ 250 µg/mL; 6: ≥ 250 µg/mL; 7: ≥ 250 µg/mL

----------
- System: MOLT-4
- assayProtocol: Growth inhibition of human MOLT4 cells at 10 uM incubated for 48 hrs by sulforhodamine B assay
- Format: functional, cell-based
Activity calls are given as the source filed them. No cut-off for these calls is given here.
Returns: one label drawn from TRUE (active), FALSE (inactive)

Solved cases below.
molecule	qualitativeLabel
COc1ccc(C2=NN(c3ccc(Cl)cc3)C(c3cccc(Nc4ccnc5cc(Cl)ccc45)c3)C2)cc1 (stereo not given)	FALSE
COc1cc(C2=NN(c3ccc(Cl)cc3)C(c3cccc(Nc4ccnc5cc(Cl)ccc45)c3)C2)cc(OC)c1OC (stereo not given)	FALSE
O=CN1N=C(c2ccc(Cl)cc2)CC1c1cccc(Nc2ccnc3cc(Cl)ccc23)c1 (stereo not given)	TRUE
Clc1ccc(C2=NN(c3cc(Cl)cc(Cl)c3)C(c3cccc(Nc4ccnc5cc(Cl)ccc45)c3)C2)cc1 (stereo not given)	FALSE
COc1ccc(C2=NN(c3ccccc3)C(c3cccc(Nc4ccnc5cc(Cl)ccc45)c3)C2)cc1 (stereo not given)	FALSE

stdin: Assay result, entry Clc1ccc(C2=NN(c3ccccc3)C(c3cccc(Nc4ccnc5cc(Cl)ccc45)c3)C2)cc1 (stereo not given) — outcome?
stdout: FALSE

stdin: What was the test verdict on Clc1ccc(C2=NN(c3ccc(Cl)cc3)C(c3cccc(Nc4ccnc5cc(Cl)ccc45)c3)C2)cc1 (stereo not given) ?
stdout: FALSE

stdin: Kindly provide the recorded test outcome for the following molecule: `COc1cc(C(=O)/C=C/c2cccc(Nc3ccnc4cc(Cl)ccc34)c2)cc(OC)c1OC`
stdout: TRUE

stdin: How was `COc1ccc(C(=O)/C=C/c2cccc(Nc3ccnc4cc(Cl)ccc34)c2)cc1` classified in this test?
stdout: TRUE

stdin: Just curious, what result did COc1ccc(C2=NN(C=O)C(c3cccc(Nc4ccnc5cc(Cl)ccc45)c3)C2)cc1 (stereo not given) get here?
stdout: TRUE

----------
- Tested on: OVCAR-3
- assayProtocol: Growth inhibition of human OVCAR3 cells incubated for 48 hrs by sulforhodamine B assay
- Type: functional
- experimentalParameters: OVCAR-3, 48 h, read-out: LC50 (the source's name)
What CC50 was measured for each of the following?
Answers are plain numbers, in µM.

For the 3 molecules below, give their CC50 values.
1. O=CN1N=C(c2ccc(Cl)cc2)CC1c1cccc(Nc2ccnc3cc(Cl)ccc23)c1 (centres undefined)
2. COc1ccc(C2=NN(C=O)C(c3cccc(Nc4ccnc5cc(Cl)ccc45)c3)C2)cc1 (centres undefined)
3. COc1cc(C(=O)/C=C/c2cccc(Nc3ccnc4cc(Cl)ccc34)c2)cc(OC)c1OC

stdout:
[83.3, 63.7, 3.85]

----------
- Test system: NCI-H322M
- assayProtocol: Growth inhibition of human NCI-H322M cells incubated for 48 hrs by sulforhodamine B assay
- Assay type: functional
- experimentalParameters: read-out: LC50 (the source's name)
readout: CC50

Here's what some known entries look like.
compound	assayedTarget	CC50
COc1ccc(C(=O)/C=C/c2cccc(Nc3ccnc4cc(Cl)ccc34)c2)cc1	NCI-H322M	> 100 µM
COc1ccc(C2=NN(C=O)C(c3cccc(Nc4ccnc5cc(Cl)ccc45)c3)C2)cc1 (centres undefined)	NCI-H322M	> 100 µM
COc1cc(C(=O)/C=C/c2cccc(Nc3ccnc4cc(Cl)ccc34)c2)cc(OC)c1OC	NCI-H322M	7.08 µM

API: the following record is the query input.
Record O=CN1N=C(c2ccc(Cl)cc2)CC1c1cccc(Nc2ccnc3cc(Cl)ccc23)c1 (centres undefined) / NCI-H322M, CC50 recorded as > 100 µM

----------
- System: HL-60(TB)
- assayProtocol: Growth inhibition of human HL-60(TB) cells incubated for 48 hrs by sulforhodamine B assay
- Assay type: functional
- experimentalParameters: HL-60, 48 h, read-out: LC50 (the source's name)
Kindly supply the reported CC50 values for the records listed here.

Some solved cases for reference:
compound	val
COc1cc(C(=O)/C=C/c2cccc(Nc3ccnc4cc(Cl)ccc34)c2)cc(OC)c1OC	> 100 µM
COc1ccc(C2=NN(C=O)C(c3cccc(Nc4ccnc5cc(Cl)ccc45)c3)C2)cc1 (centres undefined)	33.6 µM
O=CN1N=C(c2ccc(Cl)cc2)CC1c1cccc(Nc2ccnc3cc(Cl)ccc23)c1 (centres undefined)	> 100 µM

For the next question, use this compound.
The compound identified as `COc1ccc(C(=O)/C=C/c2cccc(Nc3ccnc4cc(Cl)ccc34)c2)cc1` registered its CC50 at > 100 µM
